Data provenance: the DeepSol protein solubility set

Experiment: soluble on expression in E. coli; label from the status in PepcDB or PDB records

residueSequence	soluble on expression in E. coli
MKKLLAGVLVSAIAFAKPVFMDAEWAKQFCEVWNNTPELVEKLGKSESWTEVPERKLFLYRKDCGPEKQIQLTIKNENGRAVCVYGGWKKDEKTDNDFLMYADTKRWLEMGRKEYGPMKAMLFGRLKFEGPRFVAMKNMGPFEAFLDKIDEVEADTSRCP	not soluble
MAIPGNMWIYDDGGALIKGGCDVADREFSIEFKGFHHNLSIPTDHATGKPTGTRQHSPMIIVKEFDYSSPYLYKAVATGQNLKSAEIKWYKISDAGQEVEYFNMLLEGVRIVSISPTMASPEDKNNNHLESVELRYEKITWKHCDGNIIFTDAWNERQTA	not soluble
MGSDKIHHHHHHMKNRIEDRRIKYTKMVIKQSLITLLKNKPINKVTVTEICNLADINRSTFYTHYSNPYDLLDSIEEELFEEVKSSLRDSEGETKIENTVNEIFKAIAKNKELFKIFFSSHRDYGFLIKFFGAVYNNSIDNFKSAFKSNNDAQLEYLYNYILTGNASISYKWIKNGLKESPEEMASLVNRLIVHTMSFIK	not soluble

---

Assay: soluble on expression in E. coli; label from the status in PepcDB or PDB records

residueSequence	soluble on expression in E. coli
MVRYYHIEMLACPECRNPRLILYVVREKRGAMPPQPERLKCRRWCYLFDRPASTVPLSTCVSSCVERDIEEGVLVCPACGRWYPIVEGIPVMMDDKYRDPERDREIASRLAGHVPEWVKLRAVAPVPLEPREAGEG	soluble
MGSDKIHHHHHHMERIVDTADGRFDTRLTGTGNVTFILDHGMMSSHYQWGWLRGELLKQGRVFEYSRLGYGRSTRGKTKRLFTRQADELERVLALLDIKGPFVFIGHSLGAYISLELGRRRPDETAGIVLLDPSHPEVDAELPNWYERTQEEWNRFLYVLSHVRPLAWLIPDDLGARMFTSLPEADRIPMWRNMARKNHWRGTLDEWQAVEANNQHVLEVVEHIVPPVLVLSASDWAGGMPENWLNPELTKRINAAHERFAASLPDAAFHVIPNTNHYTIAGFSEEAATTIVSLIRNAFFK	not soluble
GSMYQLQFINLVYDTTKLTHLEQTNINLFIGNWSNHQLQKSICIRHGDDTSHNQYHILFIDTAHQRIKFSSFDNEEIIYILDYDDTQHILMQTSSKQGIGTSRPIVYERLV	soluble
MSLERPLCISYIRFSKATQAEGSSLERQLQLSRTYAEEHGLVLDDKHSYQDLGKSAFTSEHVKEGEFGVFLEFVKQGRVPKGSVLLVESLDRLSRESVLTAFKQFQEILDAGIKIVTLSDKMEYTKEGFEANIGNIFISLGIMARANEESLRKSERICAAWRLKRKNLHNIKLTANCPGWLELTPDKKDFILKEDRVEIVKQIFELSLSGLGVKAISTILNKQKIEPFRSKIGWYQTTVRKILSNSAVIGEFQPHVFGSKHSKPVPDGELIKDYFPPIIDTDTFYAVQAKLKNGAHREGHHHHHH	soluble
GPGSMDESNRVPTGEAPSDEPPLKVRRHEGGHGELRETSSGDTNPQGATLFIRCTSIHGRGELLNGFISEHREALGVAKWYNVAGDESDGRCVPTLRTDAPFECVYVRSSRKPYFLLEFNEKGDVAKKFVEKLVGLRNTLYKGSPVFVEVAKGGLTVATERLKLEKRDAARRSATAVPLSFSSDKPTGPTAFVPRAVRKR	soluble
MSFLNNDFGSPPATSSPPTTMPKLPTIQDMLNNIGASTVNLMQPNPYLMQNQIPLPVPNLPLNPFLHLNPAISQEIIQQFIAMSFNTPNVLASIANMGDDEGPSCNPKMRRGDLLKSVSMDSTEDPPSITLDNNGDMIVPNNDKEGWCRNKKYIEQTENGYMCTVCRKVYGRYNSVSYHVTIYHRNPPIKCNVPNCQFTTREARYIHFHKNYRHGIPLPESIDQGSRKCPHCRHVSKSPAMLEKHIRRHQIKDGLSNINEAIRERTSTICDEAMEIEPAETEVDPIETKPRSCTL	not soluble
MGSDKIHHHHHHDEEPSDKGSTSPQEPVYTTFTDAGEVVVPGVLPANFTPRSVRVKGDTLFVANTNAADRSVLLLNLTTGELIGRIDSWVRKGVKETFNAEIGDMAVSDRYIFVGMYNSRINIFDRRTLQFVNAIGRSDGKWGDDIYSMTHCYGLRECGERLMVRDKNTIRGYWIYEAVTEPAFRVPWIGKVKVPEGVGYDYQARIHGMAEYDGRMYLTDWYNKSVQVFTPSKMEIVFGEETHITSDAVFKYDDIQPLGLLAYGGELLMSVQKSGKIQRYDPETGDLLGVLAEFPGKEIGRMEIARGMLYYIDLKAGKLMKAKGE	not soluble
MGSDKIHHHHHHMNSTTKSKEFEQHYSGTLSDYVTAIAWSPQGKTLAATSAAGEVVLWNDGELTTLQTGNGKSVDCLAFSPDGKFLAVGGQDGQVKIWQNTELIATLENAPAWVDKLAWNYTSNQLAFSLGRYVQVWDVDTHEIVVTLNFDNSSVLGIDWRIDGQYLAISGYKGVKIWHSQNWDEEPYSLDMTTVSLAMAWSPDGKFLASGNMDRSVTVLEWNNPDPWVMRGFPGKIRQLAWSEAMTKVGAPILASSSVEGIVVWEKLEDDTLGWEARVLTNHVGTINAIAFAPKSFLLASAAADGWLCLWNQAKEVSQIITGVSGGFSTLAWHPQGKLLAAGGEQGELVIWSKVLRGQGFGRS	not soluble
MKIVVAKNIGFCFGVERAIRTVEELLDEGKKVVTDGEIVHNKQVMEQLTKKGLKVSSEMTDGEVFVVRAHGIPKDRLEELKKIFPEVVDLTCPIVSQLFKTAQRYAKERKVIVFGKEDHPEMVALRGYAPAIVTKVPFKLEEKKVVFLSQTTSSLEEYKEFVAAMIRMNEFEEAVFLNTICPVTVNREREVEELSKICDLSIVVGGKHSSNTGKLFRIASKHSKTIWIESPDELPADVVKYGTVCVFSGTSTPNSLIENVVRKLKEMEGKRDGTI	soluble
MSEREHWQRVYESKPSDAVSWFQAEATLSLDLIRRIGAPREAAIIDVGGGASTLVDGLLAEGFGDLTVLDLSDAALRVARNRLGARGEEVRWIAGDITGVDLPEATYDVWHDRAVFHFLTTAEARRAYVRQVMKAVRHGGHVIVATFAADGPTECSGLPVMRYDADELHAEFGSAFQLTEHRDEHHVTPAGRVQHFVYCHCLKRLLEHHHHHH	not soluble
MGSDKIHHHHHHLRRLLNTLYVTTPDSYLAREGENILIRLEEKIVFRIPSHNIEAIVYFGYPGASPSLLGLCAEKGITVSFFSPNGRFLARVEGPQTGNVLLRRKQYRMADEENQVPVLAKYFIAAKILNSRAVLQRGRRDHPDKVGDSIERSIALLAGSVKKVFDSENLNDIRGLEGDAAQRYFSEVDNLILEQKQDFFMAARSRRPPLDNVNALLSFFYTLLVHECRAALESVGLDPAVGFLHRDRPGRPSLALDLMEELRPYLGDRMVLSLINRKQINKDDFITKENGAVYVLPDTRKMLLTVWQKRKQEEIIHPYLEEKIPIGLLPYTQALLLARFLRGDLDAYPAFIWK	not soluble

---

Experiment: soluble on expression in E. coli; label from the status in PepcDB or PDB records

residueSequence	soluble on expression in E. coli
MSLTAGKMNVKEKIKDIHFYRAVSDISRPIADSTHTISQIGFYIVELMTAEGVRGQGYVLSFHYSPGAMEGALRDVCSFISAGEYAVYDTVLARADWDREAEYFGNTGINNCAIAAVNLAMWDAWGHTCRQPVWKMLGANRRRIPVYGSGGWISYTDQELLEEVLDYKKRGFKAVKIKVGSGSIERDAERLAKCREALGDSVKIMMDANQGFNVPDALELARRASSMGIQWFEEPVVHTDYAGYQLLRNQCGIALAMGEREYDFEALKQLSVRNALDLWQPDIVRLGGVEAWRESAALAEAFGLPVLPHYYKDYDVPLLCTVRSPYGAESFDWIDGIIDNAMEIENGFASPREGDGWGFRFREECMTEVEGHHHHHH	soluble
MSLKTIITNLKVYILKGPKEKRPHWVSNFIVPNANELLVILETNQGVEGFGLATSYTDMSPIVHVIESGISEKILGCNPLEPEMLYQSLFNLTASRLAYEKGWSREALIRVSAAVDIACWDIIGKISGLPLYQLFGGFRNKVPCYVTCAYYREGKDHAELKDEIQMLVDQGHQGFKAKVGGLSLAEDLERMELVREIIGPERDLMIDVNRAWDLKTAIEGARLLEPLKPTWLEEPVRWMDDRRELKILAQHTSIPLSGGESESTSYGCRTMIDEKAIQILQFDCTMFGGFTEGRKMTALCDLNHVDVAPHHDCFIHAPLVASSPAGRIVESFTDPERDPLQAELFENPPNIEKGWLTLNEAQGLGLTLSENALAKFGTQIIEGHHHHHH	soluble
ANEMTYEQLARELLLVGPAPTNEDLKLRYLDVLIDNGLNPPGPPKRILIVGAGIAGLVAGDLLTRAGHDVTILEANANRVGGRIKTFHAKKGEPSPFADPAQYAEAGAMRLPSFHPLTLALIDKLGLKRRLFFNVDIDPQTGNQDAPVPPVFYKSFKDGKTWTNGAPSPEFKEPDKRNHTWIRTNREQVRRAQYATDPSSINEGFHLTGCETRLTVSDMVNQALEPVRDYYSVKQDDGTRVNKPFKEWLAGWADVVRDFDGYSMGRFLREYAEFSDEAVEAIGTIENMTSRLHLAFFHSFLGRSDIDPRATYWEIEGGSRMLPETLAKDLRDQIVMGQRMVRLEYYDPGRDGHHGELTGPGGPAVAIQTVPEGEPY	soluble
